ASSAY_TARGET: MAP kinase-interacting serine/threonine-protein kinase 1 (Homo sapiens) (UniProt Q9BUB5)
Sequence (Q9BUB5 whole entry, looked up): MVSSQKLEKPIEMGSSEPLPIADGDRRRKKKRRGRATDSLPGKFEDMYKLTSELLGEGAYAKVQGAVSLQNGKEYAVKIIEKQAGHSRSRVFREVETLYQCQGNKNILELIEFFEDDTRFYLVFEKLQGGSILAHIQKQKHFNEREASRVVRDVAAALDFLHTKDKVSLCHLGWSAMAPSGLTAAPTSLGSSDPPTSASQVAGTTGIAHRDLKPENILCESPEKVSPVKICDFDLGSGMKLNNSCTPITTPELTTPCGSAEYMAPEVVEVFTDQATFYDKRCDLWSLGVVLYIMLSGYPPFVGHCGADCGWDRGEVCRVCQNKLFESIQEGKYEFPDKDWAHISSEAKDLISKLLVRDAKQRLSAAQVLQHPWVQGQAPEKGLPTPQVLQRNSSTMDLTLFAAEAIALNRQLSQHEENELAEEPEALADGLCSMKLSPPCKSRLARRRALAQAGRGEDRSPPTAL
COND: at 0.1 µM
Description: GSK_PKIS: MKNK1 mean inhibition at 0.1 uM [Nanosyn]
Kindly state inhibition for each of the entries shown.
Report only the number, with the unit % understood.

QUERY: Any idea what inhibition was measured for "CCn1c(-c2nonc2N)nc2c(C#CC(C)(C)O)ncc(OC[C@@H]3CCCN3)c21" ?
RESULT: 1.39

QUERY: Any idea what inhibition was measured for "Cc1cc(-c2ccco2)cc(C)c1/C=C/c1cncc(-c2nn[nH]n2)c1" ?
RESULT: 3.16

QUERY: Any idea what inhibition was measured for "NC(=O)c1sc(-n2cnc3cc(C(F)(F)F)ccc32)cc1OCc1ccccc1Br" ?
RESULT: 1.99

QUERY: Any idea what inhibition was measured for "NS(=O)(=O)c1ccc(-c2ccc3c(NC(=O)C4CC4)n[nH]c3c2)cc1" ?
RESULT: 4.28

QUERY: Any idea what inhibition was measured for "CCn1c(-c2nonc2N)nc2c(C#CC(C)(C)O)ncc(OCC3CCNCC3)c21" ?
RESULT: 1.39

QUERY: Any idea what inhibition was measured for "COc1cccc(COc2cc(-n3cnc4ccccc43)sc2C(N)=O)c1" ?
RESULT: 1.73

QUERY: Any idea what inhibition was measured for "Nc1nonc1-c1nc2cnccc2n1C1CCCCC1" ?
RESULT: -0.38

QUERY: Any idea what inhibition was measured for "CCn1c(-c2nonc2N)nc2c(C#CCN)ncc(OCCCN)c21" ?
RESULT: -0.19

QUERY: Any idea what inhibition was measured for "COc1cc(C=NNc2ncnc3c2cnn3Cc2ccccc2)ccc1O" ?
RESULT: -2.04

---

ASSAY_TARGET: Serine/threonine-protein kinase Nek1 (Homo sapiens) (UniProt Q96PY6)
Sequence (Q96PY6 whole entry): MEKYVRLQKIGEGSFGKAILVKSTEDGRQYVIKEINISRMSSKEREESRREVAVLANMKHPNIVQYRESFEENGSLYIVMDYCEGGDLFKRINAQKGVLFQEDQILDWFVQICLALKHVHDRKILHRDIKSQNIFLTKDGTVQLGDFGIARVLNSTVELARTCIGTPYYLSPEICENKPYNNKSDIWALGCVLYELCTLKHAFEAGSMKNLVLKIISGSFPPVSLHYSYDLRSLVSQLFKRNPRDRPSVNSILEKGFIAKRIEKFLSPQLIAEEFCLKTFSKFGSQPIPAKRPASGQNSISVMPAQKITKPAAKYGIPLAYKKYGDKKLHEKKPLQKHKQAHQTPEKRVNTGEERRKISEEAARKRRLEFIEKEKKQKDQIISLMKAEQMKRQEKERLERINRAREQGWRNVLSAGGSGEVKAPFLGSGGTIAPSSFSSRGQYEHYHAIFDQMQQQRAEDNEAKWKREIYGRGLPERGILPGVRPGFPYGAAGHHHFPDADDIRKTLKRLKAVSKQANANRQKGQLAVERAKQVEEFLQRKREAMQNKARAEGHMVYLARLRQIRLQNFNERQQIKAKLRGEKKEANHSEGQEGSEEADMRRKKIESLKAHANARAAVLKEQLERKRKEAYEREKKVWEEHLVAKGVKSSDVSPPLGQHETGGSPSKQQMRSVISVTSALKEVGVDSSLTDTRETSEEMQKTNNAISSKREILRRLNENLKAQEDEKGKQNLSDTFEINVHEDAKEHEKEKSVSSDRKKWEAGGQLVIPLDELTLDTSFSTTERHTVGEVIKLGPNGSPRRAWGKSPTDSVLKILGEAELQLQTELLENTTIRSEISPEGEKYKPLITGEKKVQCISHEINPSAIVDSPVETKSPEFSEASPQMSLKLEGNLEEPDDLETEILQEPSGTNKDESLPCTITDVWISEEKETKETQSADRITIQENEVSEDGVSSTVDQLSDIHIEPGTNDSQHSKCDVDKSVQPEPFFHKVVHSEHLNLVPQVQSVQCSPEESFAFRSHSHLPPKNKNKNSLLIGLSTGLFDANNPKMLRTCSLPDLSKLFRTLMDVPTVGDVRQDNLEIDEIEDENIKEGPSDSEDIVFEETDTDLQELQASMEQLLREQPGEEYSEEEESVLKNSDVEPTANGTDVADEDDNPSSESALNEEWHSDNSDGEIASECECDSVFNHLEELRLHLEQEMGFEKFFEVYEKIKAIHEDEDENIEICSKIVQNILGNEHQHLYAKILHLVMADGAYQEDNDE
COND: at 1 µM
Description: GSK_PKIS: NEK1 mean inhibition at 1 uM [Nanosyn]
PARAMETER: inhibition (%)
Report only the number, with the unit % understood.

QUERY: Any idea what inhibition was measured for "Fc1ccc(-c2ncn(C3CCNCC3)c2-c2ccnc(Oc3ccccc3)n2)cc1" ?
RESULT: 1.73

QUERY: Any idea what inhibition was measured for "CCn1c(-c2nonc2N)nc2c(C#CC(C)(C)O)ncc(OCC3CCNCC3)c21" ?
RESULT: 3.24

QUERY: Any idea what inhibition was measured for "COc1cccc(-n2ncc3c(N/N=C/c4ccncc4)ncnc32)c1" ?
RESULT: 12.5

QUERY: Any idea what inhibition was measured for "Nc1nonc1-c1nc2cnccc2n1C1CCCCC1" ?
RESULT: 0.56

QUERY: Any idea what inhibition was measured for "NC(=O)c1sc(-n2cnc3cc(C(F)(F)F)ccc32)cc1OCc1ccccc1Br" ?
RESULT: 1.9

QUERY: Any idea what inhibition was measured for "CCn1c(-c2nonc2N)nc2c(C#CCN)ncc(OCCCN)c21" ?
RESULT: -3.17

QUERY: Any idea what inhibition was measured for "Cc1cc(-c2ccco2)cc(C)c1/C=C/c1cncc(-c2nn[nH]n2)c1" ?
RESULT: 1.67

QUERY: Any idea what inhibition was measured for "COc1cc(C=NNc2ncnc3c2cnn3Cc2ccccc2)ccc1O" ?
RESULT: -0.61

---

ASSAY_TARGET: Serine/threonine-protein kinase BRSK1 (Homo sapiens)
Sequence (whole entry): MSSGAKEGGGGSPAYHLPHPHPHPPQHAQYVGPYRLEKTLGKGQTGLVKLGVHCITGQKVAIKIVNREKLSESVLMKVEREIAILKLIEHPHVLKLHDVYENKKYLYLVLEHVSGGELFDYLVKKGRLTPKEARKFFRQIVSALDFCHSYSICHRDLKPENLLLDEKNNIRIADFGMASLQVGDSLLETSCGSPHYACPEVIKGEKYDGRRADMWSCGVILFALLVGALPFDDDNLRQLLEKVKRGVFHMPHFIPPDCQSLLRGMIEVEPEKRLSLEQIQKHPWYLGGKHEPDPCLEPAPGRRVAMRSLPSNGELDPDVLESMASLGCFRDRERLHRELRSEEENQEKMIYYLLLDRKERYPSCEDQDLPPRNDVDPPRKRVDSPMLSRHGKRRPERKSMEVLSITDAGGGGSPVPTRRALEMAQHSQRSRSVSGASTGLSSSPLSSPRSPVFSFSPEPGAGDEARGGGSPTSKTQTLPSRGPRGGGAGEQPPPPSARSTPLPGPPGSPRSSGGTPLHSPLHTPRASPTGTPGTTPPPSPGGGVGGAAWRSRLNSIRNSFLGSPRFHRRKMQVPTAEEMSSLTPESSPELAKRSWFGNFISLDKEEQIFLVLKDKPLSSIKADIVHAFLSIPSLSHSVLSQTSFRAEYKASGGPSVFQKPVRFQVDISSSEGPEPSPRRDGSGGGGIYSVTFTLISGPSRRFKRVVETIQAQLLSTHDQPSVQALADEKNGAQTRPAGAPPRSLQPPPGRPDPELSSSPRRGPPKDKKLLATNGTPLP
COND: at 0.1 µM
Description: GSK_PKIS: BRSK1 mean inhibition at 0.1 uM [Nanosyn]
Kindly state inhibition for each of the entries shown.
Report only the number, with the unit % understood.

QUERY: Any idea what inhibition was measured for "CCn1c(-c2nonc2N)nc2c(C#CC(C)(C)O)ncc(OCC3CCNCC3)c21" ?
RESULT: 0.32

QUERY: Any idea what inhibition was measured for "CCn1c(-c2nonc2N)nc2c(C#CC(C)(C)O)ncc(OC[C@@H]3CCCN3)c21" ?
RESULT: -0.75

QUERY: Any idea what inhibition was measured for "COc1cccc(COc2cc(-n3cnc4ccccc43)sc2C(N)=O)c1" ?
RESULT: -0.43

QUERY: Any idea what inhibition was measured for "NC(=O)c1sc(-n2cnc3cc(C(F)(F)F)ccc32)cc1OCc1ccccc1Br" ?
RESULT: 1.16

QUERY: Any idea what inhibition was measured for "NS(=O)(=O)c1ccc(-c2ccc3c(NC(=O)C4CC4)n[nH]c3c2)cc1" ?
RESULT: 3.64

QUERY: Any idea what inhibition was measured for "NS(=O)(=O)c1ccc(N/C=C2\C(=O)Nc3ccc4ncsc4c32)cc1" ?
RESULT: 17.6

QUERY: Any idea what inhibition was measured for "CCn1c(-c2nonc2N)nc2c(C#CCN)ncc(OCCCN)c21" ?
RESULT: 4.54
